Listing of recorded EC50, cAMP, 0.1 ng/mL Doxycycline by entry.
Target: human melanocortin-4 receptor (human, UniProt P32245 1-332)
Sequence (P32245 whole entry): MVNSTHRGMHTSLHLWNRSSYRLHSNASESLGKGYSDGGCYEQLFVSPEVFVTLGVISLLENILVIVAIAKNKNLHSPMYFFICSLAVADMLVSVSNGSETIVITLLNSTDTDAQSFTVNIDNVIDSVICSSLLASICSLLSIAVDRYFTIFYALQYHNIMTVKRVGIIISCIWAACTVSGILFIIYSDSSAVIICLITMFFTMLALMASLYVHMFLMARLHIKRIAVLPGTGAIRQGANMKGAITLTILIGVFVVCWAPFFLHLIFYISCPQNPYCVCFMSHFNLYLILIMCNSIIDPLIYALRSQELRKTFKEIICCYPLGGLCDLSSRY
Assay: cell-based or functional assay
Positions of bridges follow the written chain, without caps; N, C: chain ends. Non-standard residues stand in square brackets, D forms with d. dPhe(3,4,5-F3) = N[C@H](Cc1cc(F)c(F)c(F)c1)C(=O)O; dPhe(2-CF3) = N[C@H](Cc1ccccc1C(F)(F)F)C(=O)O; dPhe(3,4-F2) = N[C@H](Cc1ccc(F)c(F)c1)C(=O)O; dPhe(3,5-F2) = N[C@H](Cc1cc(F)cc(F)c1)C(=O)O; dPhe(4-CN) = N#Cc1ccc(C[C@@H](N)C(=O)O)cc1; dPhe(2-Cl) = N[C@H](Cc1ccccc1Cl)C(=O)O; dPhe(2-Me) = Cc1ccccc1C[C@@H](N)C(=O)O; dPhe(4-F) = N[C@H](Cc1ccc(F)cc1)C(=O)O; Orn = NCCC[C@H](N)C(=O)O

Binder: XDQXRWK (N-terminal Ac; D-Arg 1; D-Phe(2-Cl) 4; lactam Asp 2-Lys 7; C-terminal NH2, also called No. 79) [Ac-D-Arg-cyclo(Asp-Gln-D-Phe(2-Cl)-Arg-Trp-Lys)-NH2]
EC50, cAMP, 0.1 ng/mL Doxycycline (nM): 4

Binder: Ac-REN[dPhe(3,5-F2)]RW[Orn]-NH2 (lactam 2-7, also called No. 76) [Ac-Arg-cyclo(Glu-Asn-D-Phe(3,5-diF)-Arg-Trp-Orn)-NH2]
EC50, cAMP, 0.1 ng/mL Doxycycline (nM): 3

Binder: Ac-REQ[dPhe(4-F)]RW[Orn]-NH2 (lactam 2-7, also called No. 92) [Ac-Arg-cyclo(Glu-Gln-D-Phe(4-F)-Arg-Trp-Orn)-NH2]
EC50, cAMP, 0.1 ng/mL Doxycycline (nM): 0.1

Binder: Ac-R[Orn]N[dPhe(4-CN)]RWE-NH2 (lactam 2-7, also called No. 91) [Ac-Arg-cyclo(Orn-Asn-D-Phe(4-CN)-Arg-Trp-Glu)-NH2]
EC50, cAMP, 0.1 ng/mL Doxycycline (nM): 1

Binder: Ac-REQ[dPhe(3,4,5-F3)]RW[Orn]-NH2 (lactam 2-7; SMILES CC(=O)N[C@@H](CCCNC(=N)N)C(=O)N[C@H]1CCC(=O)NCCC[C@@H](C(N)=O)NC(=O)[C@H](Cc2c[nH]c3ccccc23)NC(=O)[C@H](CCCNC(=N)N)NC(=O)[C@@H](Cc2cc(F)c(F)c(F)c2)NC(=O)[C@H](CCC(N)=O)NC1=O) [Ac-Arg-cyclo(Glu-Gln-D-Phe(3,4,5-triF)-Arg-Trp-Orn)-NH2]
EC50, cAMP, 0.1 ng/mL Doxycycline (nM): 0.8

Binder: Ac-R[Orn]Q[dPhe(3,4,5-F3)]RWE-NH2 (lactam 2-7) [Ac-Arg-cyclo(Orn-Gln-D-Phe(3,4,5-triF)-Arg-Trp-Glu)-NH2]
EC50, cAMP, 0.1 ng/mL Doxycycline (nM): 0.45

Binder: Ac-REN[dPhe(2-CF3)]RW[Orn]-NH2 (lactam 2-7, also called No. 116) [Ac-Arg-cyclo(Glu-Asn-D-Phe(2-CF3)-Arg-Trp-Orn)-NH2]
EC50, cAMP, 0.1 ng/mL Doxycycline (nM): 0.68

Binder: Ac-R[Orn]Q[dPhe(2-Me)]RWE-NH2 (lactam 2-7) [Ac-Arg-cyclo(Orn-Gln-D-Phe(2-Me)-Arg-Trp-Glu)-NH2]
EC50, cAMP, 0.1 ng/mL Doxycycline (nM): 0.575

Binder: Ac-R[Orn]N[dPhe(3,4-F2)]RWE-NH2 (lactam 2-7, also called No. 75) [Ac-Arg-cyclo(Orn-Asn-D-Phe(3,4-diF)-Arg-Trp-Glu)-NH2]
EC50, cAMP, 0.1 ng/mL Doxycycline (nM): 0.65

Binder: Ac-RKQ[dPhe(4-CN)]RWD-NH2 (lactam 2-7; SMILES CC(=O)N[C@@H](CCCNC(=N)N)C(=O)N[C@H]1CCCCNC(=O)C[C@@H](C(N)=O)NC(=O)[C@H](Cc2c[nH]c3ccccc23)NC(=O)[C@H](CCCNC(=N)N)NC(=O)[C@@H](Cc2ccc(C#N)cc2)NC(=O)[C@H](CCC(N)=O)NC1=O, also called No. 93) [Ac-Arg-cyclo(Lys-Gln-D-Phe(4-CN)-Arg-Trp-Asp)-NH2]
EC50, cAMP, 0.1 ng/mL Doxycycline (nM): 0.3

Binder: Ac-RES[dPhe(2-Cl)]RW[Orn]-NH2 (lactam 2-7; SMILES CC(=O)N[C@@H](CCCNC(=N)N)C(=O)N[C@H]1CCC(=O)NCCC[C@@H](C(N)=O)NC(=O)[C@H](Cc2c[nH]c3ccccc23)NC(=O)[C@H](CCCNC(=N)N)NC(=O)[C@@H](Cc2ccccc2Cl)NC(=O)[C@H](CO)NC1=O, also called No. 31) [Ac-Arg-cyclo(Glu-Ser-D-Phe(2-Cl)-Arg-Trp-Orn)-NH2]
EC50, cAMP, 0.1 ng/mL Doxycycline (nM): 7

Binder: Ac-REN[dPhe(4-CN)]RW[Orn]-NH2 (lactam 2-7; also: acetate salt, acetate salt form; also called Ex 43) [Ac-Arg-cyclo(Glu-Asn-D-Phe(4-CN)-Arg-Trp-Orn)-NH2]
EC50, cAMP, 0.1 ng/mL Doxycycline (nM): 1

The reported measurements were obtained from patent US20100311648A1.
